Listed here: items and their measured % IL-6 production, supernatant 1:5 dilut..
target: Recombinant human IL-1beta (rhIL-1b) (human, UniProt P01584 117-269); assay: cell-based or functional assay
Lab book: enter the figure in %, no units written.

Examples with their reported % IL-6 production, supernatant 1:5 dilut. follow.
Supply measured % IL-6 production, supernatant 1:5 dilut. of 9.2.1 (antibody, human IgG4, V domains shown, lambda) VH: QVQLVESGGGVVQPGRSLRLSCAASGFTFNNYGMHWVRQAPGKGLECVAVIWYDGGNKYYADSVKGRFAISRDNSKNTLYLQMNSLRAEDTAVYYCTAVTTLYYYYGMDVWGQGTTVTVS VL: QSALTQPASVSGSPGQSITISCTGTSSDVGGYNYVSWYQQHPGKAPKLMIYEVSNRPSGVSNRFSGSKSGNTASLTISGLQAEDEADYYCSSYTSSSILVFGGGTKLTVL in your reply.
4

Supply measured % IL-6 production, supernatant 1:5 dilut. of 5.5.1 (antibody, IgG4, V domains shown, lambda; also called mAb 5.5.1; Ab 5.5.1) VH: QVQLVESGGGVVQPGRSLRLSCAASGFTFSSYGMHWVRQAPGKGLEWVAVIWYDGDNKYYADSVQGRFTISRDNSKNTLYLQMNSLRPEDTAVYYCARERSSSWYFDYWGQGTLVTVSS VL: QSALTQPASVSGSPGQSITISCTGTSSDVGSYNLVSWYQQHPGKAPKLMIYEVSKRPSGISNRFSGSKSGNTASLTISGLQAEDEADYYCCSYAGSSTWVFGGGTKLTVL in your reply.
1

Supply measured % IL-6 production, supernatant 1:5 dilut. of 5.36.1 (antibody, human IgG4, V domains shown, kappa) VH: QVQLQQSGPGLVKPSQTLSLTCAISGDSVSSNSAAWNWIRQSPSRGLEWLGRTYYRSKWYNDYAVSVKSRITINPDTSKNQFSLQLNSVTPEDTAVYYCAREEQQLVRYYYYYGMDVWGQGTTVTVS VL: DIVMTQTPLSLSVTPGQPASISCKSSQSLLHSDGRTYLYWYLQRPGQPPQLLIYEASYRFSGVPDRFSGSGSGTDFTLKISRVEAEDVGIYYCMQSIQLPRTFGQGTRLEIK in your reply.
6

Supply measured % IL-6 production, supernatant 1:5 dilut. of 9.31.1 (antibody, human IgG4, V domains shown, lambda; also called 9.31.3) VH: QVQLVESGGGLVKPGGSLRLSCAASGFTFSDYYMSWIRQAPGKGLEWVSYIRSSGSTIYYADSVKGRFTISRDNAKNSLYLQMNSLRAEDTAVYYCARTPYSGRYHWYFDLWGRGTLVTVS VL: SYELTQPPSVSVSPGQTARITCSGDALPIKYAYWYQHKSGQAPVLVIYEDSKRPSGIPERFSGSSSGTMATLTISGAQVEDEADYYCYSTDSSGNHRVFGGGTKLTVL in your reply.
6

---
Supply measured % IL-6 production, supernatant 1:5 dilut. of 9.54.1 (antibody, human IgG4, V domains shown, lambda; also called 9.54.2) VH: QVQLVESGGGVVQPGRSLRLSCAASGFTFSSFGMHWVRQAPGKGLEWVAVIWYDGSNKYYADSVKGRFTISRDNSKNTLYLQMNSLRAEDTAVYYCARDPNYDILTGYYYYGMDVWGQGTTVTVS VL: SSELTQDPAVSVALGQTVRITCQGDILRTYYASWYQQKPGQAPVLVIYGKNDRPSGIPDRFSGSSSGNTASLTITGAQAEDEADYYCDSRDNTVTHLVFGGGTKLTVL in your reply.
5
